target.or.test.system: Prothrombin (Homo sapiens) (UniProt P00734)
protocol.details: Inhibition of human thrombin
assay.endpoint: Activity (nM)

Sample answers from the record:
>  <compound>
COc1ccccc1C(=O)n1nc(-c2ccco2)nc1N

>  <quantitative.readout>
6930

$$$$
>  <compound>
Nc1nc(-c2ccco2)nn1C(=O)c1ccccc1Cl

>  <quantitative.readout>
14000

$$$$
>  <compound>
COc1ccc(C(=O)n2nc(-c3ccco3)nc2SC)cc1OC

>  <quantitative.readout>
204

$$$$

(P) COc1ccc(C(=O)n2nc(-c3ccco3)nc2N)cc1
(Q) COc1ccccc1C(=O)n1nc(-c2ccco2)nc1SC
Compare the recorded Activity of P and Q ; state which is larger. Indicate which entry you chose by stating its label.
P
(P: 828 nM, Q: 1 nM)

###

target.or.test.system: Cytochrome P450 3A4 (Homo sapiens)
Sequence (P08684 whole entry): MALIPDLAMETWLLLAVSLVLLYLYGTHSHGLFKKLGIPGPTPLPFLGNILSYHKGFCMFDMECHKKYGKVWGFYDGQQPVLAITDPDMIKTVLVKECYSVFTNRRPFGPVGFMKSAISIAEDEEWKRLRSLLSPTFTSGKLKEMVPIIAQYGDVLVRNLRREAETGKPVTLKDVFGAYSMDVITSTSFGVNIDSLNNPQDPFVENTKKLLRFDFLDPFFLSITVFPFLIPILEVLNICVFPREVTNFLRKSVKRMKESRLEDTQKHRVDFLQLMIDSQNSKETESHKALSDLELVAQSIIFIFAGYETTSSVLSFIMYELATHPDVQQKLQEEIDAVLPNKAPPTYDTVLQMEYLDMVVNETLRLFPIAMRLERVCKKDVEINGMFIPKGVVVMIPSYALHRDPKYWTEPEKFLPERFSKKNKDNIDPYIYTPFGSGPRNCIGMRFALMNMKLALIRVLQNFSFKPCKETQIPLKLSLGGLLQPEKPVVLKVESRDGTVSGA
protocol.details: Inhibition of human CYP3A4
Assay type: ADME
assay.endpoint: Activity (µM)

Consider the following illustrative entries.
>  <compound>
COc1ccccc1-c1ccc2ncnc(NCc3ccccc3)c2c1

>  <readout.unit>
µM

>  <Activity>
12.6

$$$$
>  <compound>
CN(C)C(=O)c1ccc(-c2cncnc2NCc2ccccc2)cc1

>  <readout.unit>
µM

>  <Activity>
2512

$$$$
>  <compound>
COc1cccc(-c2cncnc2NCc2ccccc2OC)c1

>  <readout.unit>
µM

>  <Activity>
501

$$$$
>  <compound>
Cc1ccccc1-c1cncnc1NCc1ccccc1

>  <readout.unit>
µM

>  <Activity>
316

$$$$
>  <compound>
Cc1cccc(CNc2ncnc3ccc(-c4ccc(C(=O)N(C)C)cc4)cc23)c1

>  <readout.unit>
µM

>  <Activity>
2

$$$$
>  <compound>
COc1ccccc1-c1cncnc1NCc1ccccc1

>  <readout.unit>
µM

>  <Activity>
251

$$$$
>  <compound>
COc1ccccc1CNc1ncncc1-c1ccccc1C(F)(F)F

>  <readout.unit>
µM

>  <Activity>
79

$$$$
>  <compound>
COc1ccccc1CNc1ncnc2ccc(-c3ccccc3CN(C)C)cc12

>  <readout.unit>
µM

>  <Activity>
12.6

$$$$

(I) COc1ccc(CNc2ncnc3ccc(-c4ccc(C(=O)N(C)C)cc4)cc23)c(OC)c1
(II) COc1ccc(CNc2ncncc2-c2ccc(C(=O)N(C)C)cc2)c(OC)c1
Would you kindly point out which of I and II has the smaller Activity figure? Indicate your choice by writing its label.
I

###

target.or.test.system: Prothrombin (Homo sapiens) (UniProt P00734)
protocol.details: Inhibition of human thrombin
assay.endpoint: Activity (nM)

Examples with answers:
>  <compound>
Cc1ccc(C(=O)n2nc(-c3ccco3)nc2N)cc1

>  <readout.unit>
nM

>  <Activity>
741

$$$$
>  <compound>
CSc1nc(-c2ccco2)nn1C(=O)c1ccc(C)cc1

>  <readout.unit>
nM

>  <Activity>
159

$$$$
>  <compound>
Nc1nc(-c2ccco2)nn1C(=O)c1ccc(Cl)cc1

>  <readout.unit>
nM

>  <Activity>
1460

$$$$

(I) CSc1nc(-c2ccco2)nn1C(=O)c1ccccc1
(II) Nc1nc(-c2ccco2)nn1C(=O)c1ccccc1
Consider I and II . Which of these has its Activity at a higher number? Reply briefly: the label of your chosen item.
II
